Tested on: Streptococcus pyogenes
Assay: Antimicrobial activity against Streptococcus pyogenes after 24 hrs by microdilution method
Format: functional
# Lookup of reported MIC keyed by entry
PROPERTY MEASURED: MIC (µg/mL)

>>> numeric_readout("CC[C@H]1OC(=O)[C@H](C)[C@@H](O[C@@H]2C[C@@](C)(OC)[C@@H](O)[C@H](C)O2)[C@H](C)[C@@H](O[C@@H]2O[C@H](C)C[C@H](N(C)C)[C@H]2O)[C@](C)(O)C[C@@H](C)CN2/C(=N\\c3cccc4ccccc34)O[C@H]([C@H]2C)[C@]1(C)O")
0.25
>>> numeric_readout("CC[C@H]1OC(=O)[C@H](C)[C@@]2(O)O[C@@](C)(C[C@@H](C)CN3/C(=N\\Cc4ccccc4)O[C@H]([C@H]3C)[C@]1(C)O)[C@H](O[C@@H]1O[C@H](C)C[C@H](N(C)C)[C@H]1O)[C@H]2C")
32

----------
# Lookup of reported MIC keyed by entry
Test system: Streptococcus pyogenes
Assay: Antimicrobial activity against Streptococcus pyogenes after 24 hrs by microdilution method
Assay type: functional
PROPERTY MEASURED: MIC (µg/mL)

>>> numeric_readout("CC[C@H]1OC(=O)[C@H](C)[C@@H](O)[C@H](C)[C@@H](O[C@@H]2O[C@H](C)C[C@H](N(C)C)[C@H]2O)[C@](C)(OC)C[C@@H](C)CN2/C(=N\\Cc3ccccc3)O[C@H]([C@H]2C)[C@]1(C)O")
16
>>> numeric_readout("CC[C@H]1OC(=O)[C@H](C)[C@@H](O)[C@H](C)[C@@H](O[C@@H]2O[C@H](C)C[C@H](N(C)C)[C@H]2O)[C@](C)(O)C[C@@H](C)CN2/C(=N\\C(C)C)O[C@H]([C@H]2C)[C@]1(C)O")
8
>>> numeric_readout("CC[C@H]1OC(=O)[C@H](C)C(=O)[C@H](C)[C@@H](O[C@@H]2O[C@H](C)C[C@H](N(C)C)[C@H]2O)[C@](C)(OC)C[C@@H](C)CN2/C(=N\\Cc3ccccc3)O[C@H]([C@H]2C)[C@]1(C)O")
8

Where these numbers come from: ChEMBL document CHEMBL1641529
